Tested on: OVCAR-3 ovarian
Experiment: NCI-60 one-dose screen, 48 h (100 = growth as untreated, 0 = no growth, -100 = all killed)
Conditions: 10 µM unless noted
Experimental: Growth inhibition of the OVCAR-3 human tumor cell line is measured as a screen for anti-cancer activity. Cells are grown in 96 well plates and exposed to the test compound for 48 hours. Compounds are tested at a single concentration, which is 10^-5 M for most compounds. The reported endpoint is percent growth (GI% or GIPRCNT), where numbers from 0 - 100% represent growth inhibition, and numbers from -100% - 0 represent cell death. For example, a value of 40 represents 60% growth inhibition. […]
About 83,000 compounds went through this panel and 20% of them were active in at least one assay; those are over-represented in the sample as a whole.
Assign class by growth: not lower than 80% means MET; lower than 80% means NOT MET.

Solved cases below.
                            compound_string  category_label
0  CCCS(=O)(=O)Nc1ccc(F)c(C(=O)c2c[nH]c3ncc(-c4ccc(Cl)cc4)cc23)c1F         NOT MET
1  COc1ccc(-c2nocc2-c2cc(OC)c(OC)c(OC)c2)cc1         NOT MET
2         CN(N)c1nc2sc3c(c2c(=O)[nH]1)CCCC3             MET

Note: attention shifts to another entry.
Can `Cc1c(Cn2c(C)nc3c(C(=O)O)cc(N4CCOCC4)cc32)cccc1C(F)(F)F` be said to have growth at or above 80%?
MET

###

test system: SF-539 CNS; assay: NCI-60 one-dose screen, 48 h; details: 10 µM unless noted
The panel holds about 83,000 compounds, 20% with a hit somewhere; the sample as a whole holds those more often. Calls of active or inactive are those of the source. Rule for the calls: active = growth percent below 10; inactive = the rest.
I would appreciate it if you answered using one of these outcomes: true (1) for active, false (0) for inactive

Identify the outcome logged in this assay for the compound shown: `C=CC(=O)Nc1cc(Nc2nccc(-c3cn(C)c4ccccc34)n2)c(OC)cc1N(C)CCN(C)C`
true (1)

Hey, what did the test say about CCN(CC)CCCC(C)Nc1cc(-c2ccc(C(F)(F)F)cc2)c(C#N)c2nc3ccccc3n12 (configuration not stated) ?
true (1)

# lookup: test call for COc1ccc(COc2cc3oc(=O)c4cc(C(C)O)ccc4c3cc2OC)cc1 (configuration not stated)
false (0)

Query: recorded result category for `COc1ccc(-c2cnc(-c3ccc(Cl)cc3)[nH]2)cc1OC` in this test
false (0)

Any idea what this test logged for `Cc1cc(N(CCNc2ccnc3cc(Cl)ccc23)Cc2ccc3c(c2)OCO3)nc(N2CCCC2)n1` ?
true (1)

How was COc1cc2c(c(OC)c1)C1c3ccccc3NC(=O)N1CC2 (configuration not stated) classified in this test?
true (1)

Could you kindly confirm the outcome this assay logged for `C[C@H]1Oc2cc(cnc2N)-c2c(nn(C)c2C#N)CN(C)C(=O)c2ccc(F)cc21` ?
false (0)

Which outcome did this test record for the compound `O=C(Nc1cccc([N+](=O)[O-])c1)c1ccc(Cl)c(Cl)c1` ?
false (0)

Fill in: this test's call for `Cc1cc(C)n(CC(=O)Nc2ccc(-c3nc4ccccc4s3)cc2)n1` is ___
false (0)

What call does the record list for `CC(C)[C@@H]1CC[C@@H]2[C@@H]1[C@H](OC(=O)/C=C/c1ccccc1)[C@]1(C(C)C)C[C@@H](OC(=O)CO)[C@@]2(C)O1` ?
false (0)

Given `COc1cc2ncnc(Nc3ccc(O)cc3)c2cc1OC` , state the outcome it received in this test.
false (0)

Per the assay record, what outcome was assigned to CCCCCCCC12Cc3ccccc3C1=Nc1c(c3ccccc3n1C)C2=O (configuration not stated) ?
false (0)

###

test system: NCI-H522 lung; assay: NCI-60 one-dose screen, 48 h (100 = growth as untreated, 0 = no growth, -100 = all killed); conditions: 10 µM unless noted
About 83,000 compounds went through this panel and 20% of them were active in at least one assay; those are over-represented in the sample as a whole.
growth values by entry
Give a bare numeral; the unit % is implied.

Please review the following examples before continuing.
>>> df
                                   compound    target_desc  property  reading_unit  numeric_value
0  CC(=O)C1CC(C)CCC1C(C)C (configuration not stated)  NCI-H522 lung    growth             %           82.8
1  COC(=O)c1ccc2c(C(=Nc3ccc(N(C)C(=O)CN4CCN(C)CC4)cc3)c3ccccc3)c(O)[nH]c2c1  NCI-H522 lung    growth             %           39.1
2  O=C(NCCO)Nc1ccc(-c2nc(N3CCOCC3)c3cccn3n2)cc1  NCI-H522 lung    growth             %           10.1
3  O=C1CC(c2cccc(F)c2)c2c(n[nH]c2-c2ccc(Cl)cc2)N1 (configuration not stated)  NCI-H522 lung    growth             %           61.5
4                        Ic1ccccc1-c1ccccc1  NCI-H522 lung    growth             %           94.9

Please give measured growth of the following entry: `Cn1ccnc1C(=O)/C=C/c1ccc(CC(=O)Nc2ccc(C(F)(F)F)cc2)cc1`
-3.98

Output measured growth for this item: `CNC(=O)c1cc(COc2nnc(Nc3ccc(Cl)cc3)c3ccoc23)ccn1`
10.4

For the compound `O=C(Nc1ccc(-c2ccnc(Nc3ccc(N4CCOCC4)cc3)n2)cc1)[C@@H]1CCCN1` , give its reported growth.
48.3

Supply recorded growth for `O=C(Nc1ccc(N=Nc2ccccc2)cc1)c1cccc2ccccc12` here.
34.9

Hello, please tell me recorded growth for this one: `C[C@@H](Oc1cc(-n2cnc3ccc(CN4CCN(C)CC4)cc32)sc1C(N)=O)c1ccccc1C(F)(F)F`
-13.5

###

tested on: MDA-MB-435 melanoma; assay: NCI-60 one-dose screen, 48 h; conditions: 10 µM unless noted
The panel holds about 83,000 compounds, 20% with a hit somewhere; the sample as a whole holds those more often. Activity calls are given as the source filed them. How the source made its calls: active means growth percent below 10; inactive means the rest.
The reply should name one outcome from active, inactive

For orientation, consider the following solved cases.
In [3]: df
Out[3]:
                            compound_string  category_label
0  Cn1nccc1Nc1nccc(-c2ccn([C@H](CO)c3ccc(Cl)c(F)c3)c(=O)c2)n1        inactive
1  Cc1nc(-c2cn3c(n2)-c2ccc(-c4cnn(C(C)(C)C(N)=O)c4)cc2OCC3)n(C(C)C)n1        inactive
2  CNC(=O)c1ccc(Nc2ncc(C(F)(F)F)c(NCc3nccnc3N(C)S(C)(=O)=O)n2)cc1          active

Let us examine a further case.
Please let me know the test result on file for `CC(C)(C)c1nc(-c2cccc(NS(=O)(=O)c3c(F)cccc3F)c2F)c(-c2ccnc(N)n2)s1` .
inactive

###

system: HCT-116 colon; assay: NCI-60 one-dose screen, 48 h (100 = growth as untreated, 0 = no growth, -100 = all killed); details: 10 µM unless noted
Compounds without any hit were thinned out: in the full panel of roughly 83,000, 20% have a hit.
# growth >= 40% gives 1, anything below gives -1

Here's what some known entries look like.
>>> df
                            compound_string  category_label
0   Nc1c(C(=O)c2ccccc2)sc2nc(-c3cccs3)ccc12              -1
1  COc1cc2c(Oc3ccc4[nH]c(C)cc4c3F)ncnc2cc1OCCCN1CCCC1               1
2      Cc1ccccc1Nc1nc2nonc2nc1Nc1cccc(C)c1C               1

Does the reported growth for `CCN(CCCOc1ccc2c(Nc3cc(CC(=O)Nc4cccc(F)c4)[nH]n3)ncnc2c1)CCOP(=O)(O)O` fall at or above the 40% mark?
1

Test whether the compound `COc1ccc2c(CCCc3ccc(Cl)cc3Cl)c3[n+](cc2c1OC)CCc1cc2c(cc1-3)OCO2` records growth of 40% or higher.
-1

Does growth meet or surpass 40% for `Nc1nc(N)c2nc(-c3cccc(O)c3)c(-c3cccc(O)c3)nc2n1` ?
1

###

System: NCI/ADR-RES ovarian
Assay: NCI-60 one-dose screen, 48 h (100 = growth as untreated, 0 = no growth, -100 = all killed)
Details: 10 µM unless noted
Method: Growth inhibition of the NCI/ADR-RES human […] tumor cell line is measured as a screen for anti-cancer activity. Cells are grown in 96 well plates and exposed to the test compound for 48 hours. Compounds are tested at a single concentration, which is 10^-5 M for most compounds. The reported endpoint is percent growth (GI% or GIPRCNT), where numbers from 0 - 100% represent growth inhibition, and numbers from -100% - 0 represent cell death. For example, a value of 40 represents 60% growth inhibition. […]
Compounds without any hit were thinned out: in the full panel of roughly 83,000, 20% have a hit.
Assign Met whenever growth does not fall below 80%; assign Not met whenever it does.

Observe how each entry below is paired with its result.
>>> df
                            compound_string          target_desc  category_label
0  COc1cc(N2CCC(N3CCN(C)CC3)CC2)ccc1Nc1ncnc(Nc2ccccc2S(=O)(=O)C(C)C)n1  NCI/ADR-RES ovarian             Met
1       COc1ccc2c(c1)cn1c3ccc(O)cc3nc(N)c21  NCI/ADR-RES ovarian         Not met
2         CCOc1ccc(N=C(C)Nc2ccc(OCC)cc2)cc1  NCI/ADR-RES ovarian             Met

# bool: growth of `C=C1[C@@H](O)C[C@H]2C(C)(C)C[C@H](Cl)C[C@]2(C)[C@H]1C[C@H](O)[C@H]1CC(=O)NC1=O` >= 80%
Not met

Determine whether measured growth meets or exceeds 80% for `CNC(=O)c1cc(Oc2cccc3nc(Nc4ccc(Cl)c(F)c4)ccc23)ccn1`
Not met
